measurement_protocol: in vitro
run_conditions: Nanoclick permeability assay EC50
Positions of bridges follow the written chain, without caps; N, C: chain ends. Non-standard residues stand in square brackets, D forms with d. Residues, ends and D or L forms follow the SMILES beside them. Lys(N3) = [N-]=[N+]=NCCCC[C@H](N)C(=O)O; R8 = C=CCCCCCC[C@@](C)(N)C(=O)O; Cba = N[C@@H](CC1CCC1)C(=O)O; S5 = C=CCCC[C@](C)(N)C(=O)O; βAla = NCCC(=O)O
property_label: cell entry EC50 (µM)

INSERT INTO results (compound, property_label, reading_unit, result) VALUES
  ('CC(=O)N[C@@H](CCCCN=[N+]=[N-])C(=O)NCCC(=O)N[C@@H](CC(C)C)C(=O)N[C@H](C(=O)N[C@@H](Cc1ccccc1)C(=O)N[C@]1(C)CCCCCCC=CCCC[C@@](C)(C(=O)N[C@@H](CO)C(=O)N[C@@H](C)C(=O)N[C@@H](C)C(N)=O)NC(=O)[C@H](CC2CCC2)NC(=O)[C@H](CCC(N)=O)NC(=O)[C@H](C)NC(=O)[C@H](Cc2c[nH]c3ccccc23)NC(=O)[C@H](Cc2ccc(O)cc2)NC(=O)[C@H](CCC(=O)O)NC1=O)C(C)C [MP-258] (Ac-[Lys(N3)][βAla]LVF[R8]EYWAQ[Cba][S5]SAA-NH2; staple 6-13)', 'cell entry EC50', 'µM', 0.146);

====

Test system: HCT116 cells
measurement_protocol: Lactate dehydrogenase (LDH) release assay
Format: cell-based
Positions of bridges follow the written chain, without caps; N, C: chain ends. Non-standard residues stand in square brackets, D forms with d. Residues, ends and D or L forms follow the SMILES beside them. Lys(N3) = [N-]=[N+]=NCCCC[C@H](N)C(=O)O; R8 = C=CCCCCCC[C@@](C)(N)C(=O)O; Cba = N[C@@H](CC1CCC1)C(=O)O; S5 = C=CCCC[C@](C)(N)C(=O)O; βAla = NCCC(=O)O
property_label: LDH: Cytotoxicity assay: % Effect

INSERT INTO measurements (compound, experimental_target, result) VALUES
  ('CC(=O)N[C@@H](CC(C)C)C(=O)N[C@H](C(=O)N[C@@H](Cc1ccccc1)C(=O)N[C@]1(C)CCCCCCC=CCCC[C@@](C)(C(=O)N[C@@H](CO)C(=O)N[C@@H](C)C(=O)N[C@@H](C)C(N)=O)NC(=O)[C@H](CC2CCC2)NC(=O)[C@H](CC(C)C)NC(=O)[C@H](CCC(N)=O)NC(=O)[C@H](Cc2c[nH]c3ccccc23)NC(=O)[C@H](C)NC(=O)[C@H](CCC(=O)O)NC1=O)[C@@H](C)O [MP-363] (Ac-LTF[R8]EAWQL[Cba][S5]SAA-NH2; staple 4-11)', 'HCT116 cells', '4.97%'),
  ('CC(C)C[C@H](NC(=O)CCNC(=O)[C@@H](N)CCCCN=[N+]=[N-])C(=O)N[C@H](C(=O)N[C@@H](Cc1ccccc1)C(=O)N[C@]1(C)CCCCCCC=CCCC[C@@](C)(C(N)=O)NC(=O)[C@H](CC2CCC2)NC(=O)[C@H](CCC(N)=O)NC(=O)[C@H](C)NC(=O)[C@H](Cc2c[nH]c3ccccc23)NC(=O)[C@H](Cc2ccc(O)cc2)NC(=O)[C@H](CCC(=O)O)NC1=O)[C@@H](C)O [MP-327] (H-[Lys(N3)][βAla]LTF[R8]EYWAQ[Cba][S5]-NH2; staple 6-13)', 'HCT116 cells', '39.84%');

====

measurement_protocol: in vitro
run_conditions: Nanoclick permeability assay EC50
The compounds listed here are annotated with their cell entry EC50.
property_label: cell entry EC50

INSERT INTO assay_data (compound, result) VALUES
  ('CC(=O)N[C@@H](CCCCN=[N+]=[N-])C(=O)N[C@@H](CO)C(=O)NCC(=O)N[C@@H](CO)C(=O)N[C@@H](CC(C)C)C(=O)N[C@H](C(=O)N[C@@H](Cc1ccccc1)C(=O)N[C@]1(C)CCCCCCC=CCCC[C@@](C)(C(=O)N[C@@H](CO)C(=O)N[C@@H](C)C(=O)N[C@@H](C)C(N)=O)NC(=O)[C@H](CC2CCC2)NC(=O)[C@H](CCC(N)=O)NC(=O)[C@H](C)NC(=O)[C@H](Cc2c[nH]c3ccccc23)NC(=O)[C@H](Cc2ccc(O)cc2)NC(=O)[C@H](CCC(=O)O)NC1=O)[C@@H](C)O', '630 nM'),
  ('CC(=O)N[C@@H](CCCCN=[N+]=[N-])C(=O)NCCC(=O)N[C@@H](CC(C)C)C(=O)N[C@H](C(=O)N[C@@H](Cc1ccccc1)C(=O)N[C@]1(C)CCCCCCC=CCCC[C@@](C)(C(=O)N[C@@H](CO)C(=O)N[C@@H](CCC(=O)O)C(=O)N[C@@H](C)C(N)=O)NC(=O)[C@H](CC2CCC2)NC(=O)[C@H](CCC(N)=O)NC(=O)[C@H](C)NC(=O)[C@H](Cc2c[nH]c3ccccc23)NC(=O)[C@H](Cc2ccc(O)cc2)NC(=O)[C@H](CCC(=O)O)NC1=O)[C@@H](C)O', '808 nM');

====

measurement_protocol: Solubility assay (kinetic solubility, PBS pH 7)
Assay type: physicochemical
run_conditions: pH 7, Solubility
Positions of bridges follow the written chain, without caps; N, C: chain ends. Non-standard residues stand in square brackets, D forms with d. Residues, ends and D or L forms follow the SMILES beside them. dPhe(4-CF3) = N[C@H](Cc1ccc(C(F)(F)F)cc1)C(=O)O; dTrp(6-F) = N[C@H](Cc1c[nH]c2cc(F)ccc12)C(=O)O; R5 = C=CCCC[C@@](C)(N)C(=O)O
property_label: solubility kinetic (µM)

INSERT INTO results (compound, property_label, result) VALUES
  ('CC(C)C[C@@H](NC(=O)[C@@]1(C)CCCC=CCCC[C@@](C)(NC(=O)[C@@H](C)NC(=O)[C@@H](Cc2ccc(O)cc2)NC(=O)[C@@H](Cc2c[nH]c3cc(F)ccc23)NC(=O)[C@@H](C)NC(=O)[C@H](N)[C@H](C)O)C(=O)N[C@H](Cc2ccc(C(F)(F)F)cc2)C(=O)N[C@H](CCC(=O)O)C(=O)N[C@H](CCC(N)=O)C(=O)N1)C(=O)N[C@H](CO)C(N)=O [MP-795] (H-[dT][dA][dTrp(6-F)][dY][dA][R5][dPhe(4-CF3)][dE][dQ][R5][dL][dS]-NH2; staple 6-10)', 'solubility kinetic', 1);

====

measurement_protocol: Experimental LogD (partition coefficient)
run_conditions: not stated, Partition Coeff LogD
property_label: logD

INSERT INTO results (compound, property_label, result) VALUES
  ('CC(=O)N[C@@H](CCCNC(=N)N)C(=O)N[C@@H](CCCNC(=N)N)C(=O)NCCC(=O)N[C@@H](CCCCN=[N+]=[N-])C(=O)N[C@@H](CC(C)C)C(=O)N[C@H](C(=O)N[C@@H](Cc1ccccc1)C(=O)N[C@]1(C)CCCCCCC=CCCC[C@@](C)(C(=O)N[C@@H](CO)C(=O)N[C@@H](C)C(=O)N[C@@H](C)C(N)=O)NC(=O)[C@H](CC2CCC2)NC(=O)[C@H](CCC(N)=O)NC(=O)[C@H](C)NC(=O)[C@H](Cc2c[nH]c3ccccc23)NC(=O)[C@H](Cc2ccc(O)cc2)NC(=O)[C@H](CCC(=O)O)NC1=O)[C@@H](C)O', 'logD', 2.72);

====

measurement_protocol: Nanoclick permeability assay
Positions of bridges follow the written chain, without caps; N, C: chain ends. Non-standard residues stand in square brackets, D forms with d. Residues, ends and D or L forms follow the SMILES beside them. dPhe(4-CF3) = N[C@H](Cc1ccc(C(F)(F)F)cc1)C(=O)O; dTrp(6-F) = N[C@H](Cc1c[nH]c2cc(F)ccc12)C(=O)O; R5 = C=CCCC[C@@](C)(N)C(=O)O
property_label: cell entry EC50 (nM)

INSERT INTO results (compound, property_label, relation, result) VALUES
  ('CC(C)C[C@@H](NC(=O)[C@@]1(C)CCCC=CCCC[C@@](C)(NC(=O)[C@@H](C)NC(=O)[C@@H](Cc2ccc(O)cc2)NC(=O)[C@@H](Cc2c[nH]c3cc(F)ccc23)NC(=O)[C@@H](C)NC(=O)[C@H](N)[C@H](C)O)C(=O)N[C@H](Cc2ccc(C(F)(F)F)cc2)C(=O)N[C@H](CCC(=O)O)C(=O)N[C@H](CCC(N)=O)C(=O)N1)C(=O)N[C@H](CO)C(N)=O [MP-795] (H-[dT][dA][dTrp(6-F)][dY][dA][R5][dPhe(4-CF3)][dE][dQ][R5][dL][dS]-NH2; staple 6-10)', 'cell entry EC50', '>', 10000),
  ('CC(=O)N[C@@H](CCCCN=[N+]=[N-])C(=O)NCCC(=O)N[C@@H](CC(C)C)C(=O)N[C@@H](Cc1c[nH]cn1)C(=O)N[C@@H](Cc1ccccc1)C(=O)N[C@]1(C)CCCCCCC=CCCC[C@@](C)(C(=O)N[C@@H](CO)C(=O)N[C@@H](C)C(=O)N[C@@H](C)C(N)=O)NC(=O)[C@H](CC2CCC2)NC(=O)[C@H](CCC(N)=O)NC(=O)[C@H](C)NC(=O)[C@H](Cc2c[nH]c3ccccc23)NC(=O)[C@H](Cc2ccc(O)cc2)NC(=O)[C@H](CCC(=O)O)NC1=O [MP-174, AZIDE-ATSP-7041 (T2H)]', 'cell entry EC50', '=', 50.6);

These entries and their values trace back to paper PMC10786919.
